pKi: −log10 of the molar value.
Bovine Cathepsin S (Bos taurus): recorded pKi for assorted molecules
Sequence (P25326 115-331): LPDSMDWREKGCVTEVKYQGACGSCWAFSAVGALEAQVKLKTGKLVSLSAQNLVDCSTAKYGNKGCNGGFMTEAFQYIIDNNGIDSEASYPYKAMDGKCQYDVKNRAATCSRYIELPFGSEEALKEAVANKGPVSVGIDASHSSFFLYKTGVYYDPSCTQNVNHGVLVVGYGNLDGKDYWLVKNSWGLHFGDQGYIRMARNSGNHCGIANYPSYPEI

For C[C@H]1OCC(=O)[C@]1(C)NC(=O)[C@H](CC1CCCCC1)NC(=O)c1ccoc1 the molecule record lists pKi as > 5.70

Entry C[C@H]1OCC(=O)[C@]1(C)NC(=O)[C@H](Cc1ccc(O)cc1)NC(=O)c1cccc2ccccc12 , pKi reported as < 4.30

// pKi value for C[C@H]1OCC(=O)[C@]1(C)NC(=O)[C@H](Cc1ccc(O)cc1)NC(=O)c1csc(-c2cccnc2)n1 : < 4.30

----------
Observed Ki for Cruzipain (Trypanosoma cruzi), reported per entry below.

Examples with their reported Ki follow.
Cruzipain (Trypanosoma cruzi) data for C[C@H]1OCC(=O)[C@]1(C)NC(=O)[C@H](Cc1ccc(O)cc1)NC(=O)c1cccc2ccccc12 [Example 27] ; its Ki: > 20 µM

The value of Ki recorded for C[C@H]1OCC(=O)[C@]1(C)NC(=O)[C@H](CC1CCCCC1)NC(=O)c1ccoc1 [Example 19] when tested on Cruzipain (Trypanosoma cruzi) reads > 50 µM

Now examine the next entry.
Kindly note: Cruzipain (Trypanosoma cruzi), C[C@H]1OCC(=O)[C@]1(C)NC(=O)[C@H](Cc1ccc(O)cc1)NC(=O)c1csc(-c2cccnc2)n1 [Example 6] , Ki value reported: < 2 µM

----------
biological target: Human Cathepsin L (Homo sapiens)
Sequence (P07711 114-333): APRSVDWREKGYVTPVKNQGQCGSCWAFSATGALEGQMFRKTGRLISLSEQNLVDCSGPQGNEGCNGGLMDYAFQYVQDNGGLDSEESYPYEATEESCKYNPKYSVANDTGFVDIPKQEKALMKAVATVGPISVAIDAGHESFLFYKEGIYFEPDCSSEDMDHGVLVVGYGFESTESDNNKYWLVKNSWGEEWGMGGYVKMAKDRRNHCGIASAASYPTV
pKi: −log10 of the molar value.
TEST_READOUT: pKi

Memo: C[C@H]1OCC(=O)[C@]1(C)NC(=O)[C@H](Cc1ccc(O)cc1)NC(=O)c1cccc2ccccc12 , reported pKi: > 5.30
